# Species on record: Rattus norvegicus
# experimental_protocol: DrugMatrix - Regimen: Daily Repeat
# Assay type: toxicity, organism-based, Sprague-Dawley
# Design: regimen Daily Repeat, gender Male, age 6-8 weeks
# assay_context: in vivo, po, 0 mg/kg, 72 h, tissue Plasma, route oral GAVAGE, dose level Control, time 3 day, vehicle 100 % WATER
Lab note: cut-off is 6 G/DL. Strictly less in TOTAL PROTEIN is class 1. Exactly 6 G/DL or more is class 0.

Exam item: TOTAL PROTEIN under 6 G/DL? Item: COc1cc2ncnc(Nc3ccc(F)c(Cl)c3)c2cc1OCCCN1CCOCC1 [GEFITINIB]
Marked response: class 0

Exam item: TOTAL PROTEIN under 6 G/DL? Item: C[N+](C)(C)CCO.[Cl-] [CHOLINE CHLORIDE]
Marked response: class 1

Exam item: TOTAL PROTEIN under 6 G/DL? Item: CC(C)NCC(O)COc1cccc2ccccc12 (stereo not given) [PROPRANOLOL]
Marked response: class 1

Exam item: TOTAL PROTEIN under 6 G/DL? Item: CC(C)(C)c1ccc(C(=O)CCCN2CCC(OC(c3ccccc3)c3ccccc3)CC2)cc1 [EBASTINE]
Marked response: class 1

---

Provide the reported CHOLESTEROL of each item.
# Species on record: Rattus norvegicus
# experimental_protocol: DrugMatrix - Regimen: Daily Repeat
# Assay type: toxicity, organism-based, Sprague-Dawley
# Set-up: regimen Daily Repeat, gender Male, age 6-8 weeks
# assay_context: in vivo, po, 0 mg/kg, 120 h, tissue Plasma, route oral GAVAGE, dose level Control, time 5 day, vehicle 100 % WATER
Numeric only. Scale: mg/dL

Exam item: Param item = CC(C)C[C@H](NC(=O)[C@@H](O)[C@H](N)Cc1ccccc1)C(=O)O ; retrieve measured CHOLESTEROL.
Marked response: 78.5

Exam item: Param item = C[N+](C)(C)CCO.[Cl-] [CHOLINE CHLORIDE] ; retrieve measured CHOLESTEROL.
Marked response: 67.83

Exam item: Param item = COc1cc2ncnc(Nc3ccc(F)c(Cl)c3)c2cc1OCCCN1CCOCC1 ; retrieve measured CHOLESTEROL.
Marked response: 66.83

Exam item: Param item = C[C@@H]1C[C@@H]([C@H](O)CC2CC(=O)NC(=O)C2)C(=O)[C@@H](C)C1 [CYCLOHEXIMIDE] ; retrieve measured CHOLESTEROL.
Marked response: 76.33

Exam item: Param item = ClC(Cl)Cl [CHLOROFORM] ; retrieve measured CHOLESTEROL.
Marked response: 65.33

Exam item: Param item = COC(=O)C1=C(C)NC(C)=C(C(=O)OCC(C)C)C1c1ccccc1[N+](=O)[O-] (centres undefined) ; retrieve measured CHOLESTEROL.
Marked response: 69.17

Exam item: Param item = Cc1ncc([N+](=O)[O-])n1CCO ; retrieve measured CHOLESTEROL.
Marked response: 65.33

Exam item: Param item = CC(C)(C)c1ccc(C(=O)CCCN2CCC(OC(c3ccccc3)c3ccccc3)CC2)cc1 ; retrieve measured CHOLESTEROL.
Marked response: 71.33

Exam item: Param item = CC(C)NCC(O)COc1cccc2ccccc12 (centres undefined) ; retrieve measured CHOLESTEROL.
Marked response: 71.33

---

# Species on record: Rattus norvegicus
# experimental_protocol: DrugMatrix - Regimen: Daily Repeat
# Format: toxicity, organism-based, Sprague-Dawley
# Design: regimen Daily Repeat, gender Male, age 6-8 weeks
# assay_context: in vivo, po, 10 mg/kg, 72 h, tissue Blood, route oral GAVAGE, dose level Low, time 3 day, […]
experimental_endpoint: HEMATOCRIT (%)
Numeric only. Scale: %

Exam item: Param item = CC(C)CC(N(C)C)C1(c2ccc(Cl)cc2)CCC1 (centres undefined) ; retrieve measured HEMATOCRIT.
Marked response: 34.23

Exam item: Param item = CCOC(=O)C1=C(C)NC(C)=C(C(=O)OC)C1c1cccc([N+](=O)[O-])c1 (centres undefined) ; retrieve measured HEMATOCRIT.
Marked response: 33.93

Exam item: Param item = COc1ccc2cc([C@H](C)C(=O)O)ccc2c1 ; retrieve measured HEMATOCRIT.
Marked response: 36.03

Exam item: Param item = COCCOC(=O)C1=C(C)NC(C)=C(C(=O)OC(C)C)C1c1cccc([N+](=O)[O-])c1 (centres undefined) ; retrieve measured HEMATOCRIT.
Marked response: 33.27
